meta.source: PubChem BioAssay AID1159580

Could you please report measured normalized growth for the items listed next?
Experiment: chemical genetic growth profiling, strain panel (AID 1159580);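 note: tested at 20 µM; growth read once vehicle control cultures reached saturation at 30 °C; 1 = growth at the plate median or of vehicle wells; lower values mean less growth of the strain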
Settings: S. cerevisiae deletion strains, growth OD, locus YDL101C, strain DUN1, stronger effect = lower value
Hit rate of the full screen: of about 5,500 compounds, about 2,000 (36%) were called active. Not shown: some 18% with an inconclusive outcome. The list shows a part of the results.

{"molecule": "C[C@@H]1OC(O[C@H]2[C@H](O)[C@@H](O)[C@H](OC[C@H]3O[C@@H](OC(=O)[C@]45CCC(C)(C)CC4C4=CCC6[C@@]7(C)CC[C@H](OC8OC[C@H](O)[C@H](O)[C@H]8OC8O[C@@H](C)[C@H](O)[C@@H](O)[C@H]8O)[C@@](C)(CO)C7CC[C@@]6(C)[C@]4(C)CC5)[C@H](O)[C@@H](O)[C@@H]3O)O[C@@H]2CO)[C@H](O)[C@H](O)[C@H]1O (some centres not stated)", "normalized growth": "0.992 (inactive)"}

// moving on: another record for normalized growth
Please indicate normalized growth recorded for NCCC(=O)N[C@@H](Cc1cnc[nH]1)C(=O)O
0.994 (inactive)

---

Assay: chemical genetic growth profiling, strain panel (AID 1159580);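 note: tested at 20 µM; growth read once vehicle control cultures reached saturation at 30 °C; 1 = growth at the plate median or of vehicle wells; lower values mean less growth of the strain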
Settings: S. cerevisiae deletion strains, growth OD, locus YLR384C, strain iki3, stronger effect = lower value
Hit rate of the full screen: of about 5,500 compounds, about 2,000 (36%) were called active. Inconclusive results (about 18%) are left out. This is one part of the list.
# label = 1 if normalized growth < 1 else 0

{"molecule": "CO[C@@]12[C@@H]3NC3CN1C1=C(C(=O)C(N)=C(C)C1=O)[C@@H]2COC(N)=O (stereo not given in full)", "className": 1}
{"molecule": "Cc1cc(O)cc(O)c1C(=O)O", "className": 0}
{"molecule": "CC1(C)CC(O)C2(C)CCC3(C)C(=CCC4C5(C)CCC(O)C(C)(CO)C5CCC43C)C2C1 (stereo not given)", "className": 0}
{"molecule": "OC(CCN1CCCCC1)(c1ccccc1)C1CCCCC1 (stereo not given)", "className": 1}
{"molecule": "C[C@@H]1OC(O[C@H]2C(O[C@H]3CC[C@@]4(C)C(CC[C@]5(C)C4CC=C4C6CC(C)(C)CC[C@]6(C(=O)O)CC[C@]45C)[C@]3(C)CO)OC[C@H](O)[C@@H]2O)[C@H](O)[C@H](O)[C@H]1O (stereo not given in full)", "className": 1}

Now turn to the next molecule.
Hello, is normalized growth of the following molecule strictly smaller than 1? C[C@@H]1CC[C@H]2[C@@H](C)C(=O)O[C@@H]3O[C@@]4(C)CC[C@@H]1[C@]32OO4
1

---

Experiment: chemical genetic growth profiling, strain panel (AID 1159580);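 note: tested at 20 µM; growth read once vehicle control cultures reached saturation at 30 °C; 1 = growth at the plate median or of vehicle wells; lower values mean less growth of the strain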
Settings: S. cerevisiae deletion strains, growth OD, locus YOR265W, strain rbl2, stronger effect = lower value
Hit rate of the full screen: of about 5,500 compounds, about 2,000 (36%) were called active. About 18% were inconclusive and are not listed. This is one part of the list.
Exercise: for every item that follows, state its recorded normalized growth.
Give bare numbers.

Look at each molecule and report its normalized growth.
1. C/C=C(/C)C(=O)O[C@@H]1[C@H](OC(C)=O)[C@@]2(CO)C(CC1(C)C)C1=CCC3[C@@]4(C)CC[C@H](O[C@@H]5O[C@H](C(=O)O)[C@@H](O[C@@H]6O[C@H](CO)[C@@H](O)[C@H](O)[C@H]6O)[C@H](O)[C@H]5O[C@@H]5O[C@H](CO)[C@@H](O)[C@H](O)[C@H]5O)[C@](C)(CO)C4CC[C@@]3(C)[C@]1(C)C[C@H]2O (some centres not stated)
2. C[C@@H]1CC[C@]2(C(=O)O)CC[C@]3(C)C(=CCC4[C@@]5(C)CC[C@H](O)C(C)(C)C5CC[C@]43C)C2[C@H]1C (some centres not stated)

0.993
0.999
